tested on: TO-N3-2 (biotin conjugate); assay: pull-down binding Z-score (relative to library population); higher = stronger binding; conditions: RNA library: Library-2
Outcome: Satisfied for pull-down binding Z-score of at least -0.2; Not satisfied for anything lower.

residue_codes=GCUGGCCUUGAAGCCCCUUUUCUCUAUCUUUAUGCUUUAGUCUACUUCUUGCAGAGUAUAAACUUUGUAAGAAUAAUAAUGAGGCUUUGGCUUUGC assigned_category="Not satisfied"
residue_codes="GGUGGCAAACCUUGUAUCAAAGUAGCCACU [SHAPE_invitro_SARS-CoV-2_Motif_216]" assigned_category="Not satisfied"
residue_codes="AUGUCCCUUUAGUUCAAAGU [hsa-mir-2052]" assigned_category="Not satisfied"
residue_codes=CUAAUAACACUAAAGGUUCAUUGCCUAUUAAUGUUAUAG assigned_category="Not satisfied"
residue_codes=AUUAUGAGGACUUUUAAAGUUUCCAUUUGGAAUCUUGAUUACAUCAUAAACCUCAUAAU assigned_category="Not satisfied"
residue_codes="UGAGGUACUUCCUUC [hsa-mir-1205]" assigned_category=Satisfied
residue_codes=UCUGCACUGUUAGCGGGUACAAUCACUUCUGGUUGGACCUUUGGUGCAGG assigned_category="Not satisfied"
residue_codes="CAAUGAAGACAUGAAGACCCAAUGUCUUCAUUG [hsa-mir-4529]" assigned_category="Not satisfied"
residue_codes="UUUGCCAUUACUUUCAGUGGCAAA [hsa-mir-548aq]" assigned_category="Not satisfied"
residue_codes="UGGGAUAUUGCCCG [IAV_invivo_PB2_1_Motif_20+IAV_invivo_PB2_1_Motif_20]" assigned_category=Satisfied
residue_codes="UCUUCCCAGAGUCAGGAAAA [hsa-mir-320c-1]" assigned_category=Satisfied
residue_codes="GUGUAGGGGUGGCUACAC [hsa-mir-4717]" assigned_category=Satisfied
residue_codes="GGUUGUUAGAUAGACAACU [hsa-mir-4510]" assigned_category="Not satisfied"
residue_codes="GAAUGAAAAAAUGAAUCAUC [hsa-mir-421]" assigned_category=Satisfied
residue_codes="UUGUGGCAAUACAG [hsa-mir-8068]" assigned_category=Satisfied
residue_codes=UUACAGAAGAGGUUGGCCACACAGAUCUAAUGGCUGCUUAUGUAG assigned_category=Satisfied
residue_codes=GUAAGAGAAUUCCUUAC assigned_category="Not satisfied"
residue_codes="UGUUUAACUCCUCUCCACGUGAACA [hsa-mir-499a]" assigned_category=Satisfied
residue_codes="GGGUCAGGUCUGCAGCCUUGUAUCUGCUGAUCC [hsa-mir-6881]" assigned_category=Satisfied
residue_codes=GCUAACAAACAUGCUGAUUUUGACACAUGGUUUAGCCAGCGUGGUGGUAGU assigned_category=Satisfied
residue_codes="CUCGGGAGGCUGAG [hsa-mir-4419a]" assigned_category=Satisfied
residue_codes="UAUGAAGGUAAGCAUUUUUGUA [hsa-mir-3935]" assigned_category="Not satisfied"
